Assay: Apparent permeability in MDCK-II cells
Type: ADME, cell-based, Canis lupus familiaris
Settings: dog
reported.metric: Papp (×10⁻⁶ cm/s)
Value expressed in ×10⁻⁶ cm/s; do not type the unit.

Fill in: Papp of C=CC(=O)N1C[C@H](C)N(c2nc(=O)n3c4nc(c(Cl)cc24)-c2c(F)ccc(F)c2OCCOc2ccnc(C(C)C)c2-3)C[C@H]1C is ___
20

Fill in: Papp of C=CC(=O)N1C[C@H](C)N(c2nc(=O)n3c4nc(c(F)cc24)-c2c(F)cccc2OCC(F)(F)CCc2ccnc(C(C)C)c2-3)C[C@H]1C is ___
23

Fill in: Papp of C=CC(=O)N1C[C@H](C)N(c2nc(=O)n3c4nc(c(F)cc24)-c2c(F)ccc(F)c2OCCOc2ccnc(C(C)C)c2-3)C[C@H]1C is ___
15

###

Biological target: GTPase KRas (Homo sapiens, UniProt P01116, G12C)
Sequence (P01116 whole entry G12C): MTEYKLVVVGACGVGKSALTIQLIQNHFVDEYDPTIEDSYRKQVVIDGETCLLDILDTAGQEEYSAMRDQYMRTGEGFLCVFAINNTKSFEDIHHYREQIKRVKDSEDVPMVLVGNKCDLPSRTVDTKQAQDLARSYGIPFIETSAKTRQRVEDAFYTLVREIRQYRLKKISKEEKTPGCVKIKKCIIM
Assay: Inhibition of recombinant biotinylated KRAS G12C mutant (unknown origin) assessed as human SOS catalyzed nucleotide exchange measured after 60 mins by TR-FRET based guanine nucleotide exchange assay
pIC50: −log10 of the molar value.
Class True: pIC50 at least 8. Class False: pIC50 below 8.

Dear colleague, could you confirm whether C=CC(=O)N1CCN(c2nc(=O)n3c4nc(c(Cl)cc24)-c2c(F)cccc2OCCc2ccccc2-3)[C@@H](C)C1 has pIC50 at or above 8?
False

Dear colleague, could you confirm whether C=CC(=O)N1C[C@H](C)N(c2nc(=O)n3c4nc(c(F)cc24)-c2c(F)ccc(F)c2OCCOc2ccnc(C(C)C)c2-3)C[C@H]1C has pIC50 at or above 8?
True

Dear colleague, could you confirm whether C=CC(=O)N1C[C@H](C)N(c2nc(=O)n3c4nc(c(C)cc24)-c2c(F)ccc(F)c2OCCOc2ccnc(C(C)C)c2-3)C[C@H]1C has pIC50 at or above 8?
True

Dear colleague, could you confirm whether C=CC(=O)N1C[C@H](C)N(c2nc(=O)n3c4nc(c(Cl)cc24)-c2c(F)ccc(F)c2OCCOc2ccnc(C(C)C)c2-3)C[C@H]1C has pIC50 at or above 8?
True

Dear colleague, could you confirm whether C=CC(=O)N1C[C@H](C)N(c2nc(=O)n3c4nc(c(F)cc24)-c2c(F)cc(F)cc2OCC(F)(F)CCc2ccnc(C(C)C)c2-3)C[C@H]1C has pIC50 at or above 8?
True

###

Molecular target: GTPase KRas (Homo sapiens, UniProt P01116, G12C)
Test: Inhibition of KRAS G12C mutant in human NCI-H358 cells assessed as reduction in Erk1/2 phosphorylation level measured for 8 hrs by Western blot analysis
Assay type: cell-based
reported.metric: IC50 (nM)
Value expressed in nM; do not type the unit.

Fill in: IC50 of C=CC(=O)N1C[C@H](C)N(c2nc(=O)n3c4nc(c(F)cc24)-c2c(F)cccc2OCC(F)(F)CCc2ccnc(C(C)C)c2-3)C[C@H]1C is ___
6.6

Fill in: IC50 of C=CC(=O)N1C[C@H](C)N(c2nc(=O)n3c4nc(c(F)cc24)-c2c(F)cc(F)cc2OCC(F)(F)CCc2ccnc(C(C)C)c2-3)C[C@H]1C is ___
8.9

Fill in: IC50 of C=CC(=O)N1C[C@H](C)N(c2nc(=O)n3c4nc(c(C)cc24)-c2c(F)ccc(F)c2OCCOc2ccnc(C(C)C)c2-3)C[C@H]1C is ___
30

Fill in: IC50 of C=CC(=O)N1C[C@H](C)N(c2nc(=O)n3c4nc(c(F)cc24)-c2c(F)cccc2OCCCc2ccnc(C(C)C)c2-3)C[C@H]1C is ___
7.4

Fill in: IC50 of C=CC(=O)N1C[C@H](C)N(c2nc(=O)n3c4nc(c(Cl)cc24)-c2c(F)ccc(F)c2OCCOc2ccnc(C(C)C)c2-3)C[C@H]1C is ___
9

Fill in: IC50 of C=CC(=O)N1C[C@H](C)N(c2nc(=O)n3c4nc(c(F)cc24)-c2c(F)cccc2OCCOc2ccnc(C(C)C)c2-3)C[C@H]1C is ___
11

Fill in: IC50 of C=CC(=O)N1CCN(c2nc(=O)n3c4nc(c(F)cc24)-c2c(F)cccc2OCCCOc2ccnc(C(C)C)c2-3)[C@@H](C)C1 is ___
21
